TARGET_OR_SYSTEM: GNAQ/GNA11 (Homo sapiens) (UniProt P50148+P29992)
PROTOCOL_SUMMARY: Inhibition of Galphaq/11 (unknown origin) expressed in CHO-M1 cells at 10 uM preincubated for 1 hr followed by carbachol stimulation for 30 mins and measured after 1 hr by IP1 accumulation based HTRF assay relative to control
Assay type: cell-based
SETUP_CONDITIONS: time 150.0 min
READOUT_LABEL: inhibition (%)
Output spec: scalar in %, unitless text.

Answered cases to consult:
Would you mind telling me what inhibition value was observed for CC[C@H](C)[C@H](N)C(=O)N1CCn2cc(-c3cc(Cl)ccc3Cl)nc2[C@@H]1CC1CCCCC1 ? 10.2

Would you mind telling me what inhibition value was observed for CC[C@H](C)[C@H](N)C(=O)N1CCn2cc(-c3cccc(F)c3F)nc2[C@@H]1CC1CCCCC1 ? 16.3

Would you mind telling me what inhibition value was observed for CC[C@H](C)[C@H](N)C(=O)N1CCn2cc(-c3cc(Cl)cc(Cl)c3)nc2[C@@H]1CC1CCCCC1 ? 12.8

More entries:
Would you mind telling me what inhibition value was observed for CCC[C@H]1c2nc(-c3ccc4c(c3)CCCC4)cn2CCN1C(=O)[C@@H](N)[C@@H](C)CC ? 5.2

Would you mind telling me what inhibition value was observed for CC[C@H](C)[C@H](N)CN1CCn2cc(-c3ccc4c(c3)CCCC4)nc2[C@@H]1CC1CCCCC1 ? 11.9

Would you mind telling me what inhibition value was observed for CN(C)CCN1CCn2cc(-c3ccc4c(c3)CCCC4)nc2[C@@H]1CC1CCCCC1 ? 17.1

Would you mind telling me what inhibition value was observed for CC[C@H](C)[C@H](N)C(=O)N1CCn2cc(-c3ccc4c(c3)CCCC4)nc2[C@@H]1C1CCCCC1 ? 10.4

Would you mind telling me what inhibition value was observed for N[C@H](CN1CCn2cc(-c3ccc4c(c3)CCCC4)nc2[C@@H]1CC1CCCCC1)C1CCCCC1 ? 12.2

Would you mind telling me what inhibition value was observed for c1cc2c(cc1-c1cn3c(n1)[C@H](CC1CCCCC1)N(CCNC1CCCC1)CC3)CCCC2 ? 10.8

Would you mind telling me what inhibition value was observed for CC[C@H](C)[C@H](N)C(=O)N1CCn2cc(-c3ccc4c(c3)CCCC4)nc2[C@@H]1CC ? 11.5

Would you mind telling me what inhibition value was observed for CC[C@H](C)[C@H](N)C(=O)N1CCn2cc(-c3cccc(C)c3C)nc2[C@@H]1CC1CCCCC1 ? 13.7

Would you mind telling me what inhibition value was observed for CC[C@H](C)[C@H](N)C(=O)N1CCn2cc(-c3ccc(Cl)c(C)c3)nc2[C@@H]1CC1CCCCC1 ? 7.4

Would you mind telling me what inhibition value was observed for CC[C@H](C)[C@H](N)C(=O)N1CCn2cc(-c3cc(Cl)c(Cl)c(Cl)c3)nc2[C@@H]1CC1CCCCC1 ? 13.2

Would you mind telling me what inhibition value was observed for CC[C@H](C)[C@H](N)C(=O)N1CCn2cc(-c3ccc(C)cc3)nc2[C@@H]1CC1CCCCC1 ? 31.9

Would you mind telling me what inhibition value was observed for CC[C@H](C)[C@H](N)C(=O)N1CCn2cc(-c3cccc(I)c3)nc2[C@@H]1CC1CCCCC1 ? 19.4

Would you mind telling me what inhibition value was observed for CC[C@H](C)[C@H](N)C(=O)N1CCn2cc(-c3cccc(Cl)c3)nc2[C@@H]1CC1CCCCC1 ? 26.2

Would you mind telling me what inhibition value was observed for CC[C@H](C)[C@H](N)C(=O)N1CCn2cc(-c3cccc(OC(F)(F)F)c3)nc2[C@@H]1CC1CCCCC1 ? 12.4

---

PROTOCOL_SUMMARY: Antiproliferative activity against human MP41 cells assessed as reduction in cell viability measured after 72 hrs by CCK-8 method
Format: functional, cell-based
SETUP_CONDITIONS: MP41, 72 h
Rule for this label: 1 (yes) means IC50 is less than 10 µM; 0 (no) means IC50 is at least 10 µM.

Example entries begin here.
Does the reported IC50 of CC[C@H](C)[C@H](N)C(=O)N1CCn2cc(-c3ccc4c(c3)CCCC4)nc2[C@@H]1CC1CCCCC1 stay below 10 µM? 1 (yes)

Does the reported IC50 of CC[C@H](C)[C@H](N)C(=O)N1CCn2cc(-c3ccc4c(c3)CCCC4)nc2[C@H]1C(C)C stay below 10 µM? 0 (no)

Does the reported IC50 of CC[C@H](C)[C@H](N)C(=O)N1CCn2cc(-c3cc(Cl)ccc3Cl)nc2[C@@H]1CC1CCCCC1 stay below 10 µM? 0 (no)

Does the reported IC50 of CC[C@H](C)[C@H](N)C(=O)N1CCn2cc(-c3cccc(C)c3)nc2[C@@H]1CC1CCCCC1 stay below 10 µM? 1 (yes)

More entries:
Does the reported IC50 of CC[C@H](C)[C@H](N)C(=O)N1CCn2cc(-c3ccc4c(c3)CCCC4)nc2[C@H]1CC(C)C stay below 10 µM? 0 (no)

---

inhibition values, listed per item
TARGET_OR_SYSTEM: GNAQ/GNA11 (Homo sapiens) (UniProt P50148+P29992)
PROTOCOL_SUMMARY: Inhibition of Galphaq/11 (unknown origin) expressed in CHO-M1 cells at 10 uM preincubated for 1 hr followed by carbachol stimulation for 30 mins and measured after 1 hr by IP1 accumulation based HTRF assay relative to control
Type: cell-based
SETUP_CONDITIONS: time 150.0 min
Output spec: scalar in %, unitless text.

Answered cases to consult:
Item CC[C@H](C)[C@H](N)C(=O)N1CCn2cc(-c3cccc(S(C)(=O)=O)c3)nc2[C@@H]1CC1CCCCC1 with GNAQ/GNA11 (Homo sapiens) (UniProt P50148+P29992) - inhibition? 13

Item CC[C@H](C)[C@H](N)C(=O)N1CCn2cc(-c3cccc(Br)c3)nc2[C@@H]1CC1CCCCC1 with GNAQ/GNA11 (Homo sapiens) (UniProt P50148+P29992) - inhibition? 21.9

Item CC[C@H](C)[C@H](N)C(=O)N1CCn2cc(-c3cccc([N+](=O)[O-])c3)nc2[C@@H]1CC1CCCCC1 with GNAQ/GNA11 (Homo sapiens) (UniProt P50148+P29992) - inhibition? 17.5

More entries:
Item CC[C@H](C)[C@H](N)C(=O)N1CCn2cc(-c3ccccc3)nc2[C@@H]1CC1CCCCC1 with GNAQ/GNA11 (Homo sapiens) (UniProt P50148+P29992) - inhibition? 26.6

---

TARGET_OR_SYSTEM: GNAQ/GNA11 (Homo sapiens) (UniProt P50148+P29992)
PROTOCOL_SUMMARY: Inhibition of Galphaq/11 (unknown origin) expressed in CHO-M1 cells at 10 uM preincubated for 1 hr followed by carbachol stimulation for 30 mins and measured after 1 hr by IP1 accumulation based HTRF assay relative to control
Type: cell-based
SETUP_CONDITIONS: time 150.0 min
# label = YES if inhibition >= 20% else NO

Example entries begin here.
Textbook exercise: given the entry CN1CCC[C@H]1CN1CCn2cc(-c3ccc4c(c3)CCCC4)nc2[C@@H]1CC1CCCCC1 , state whether its inhibition is greater than or equal to 20%. NO

Textbook exercise: given the entry CC[C@H](C)[C@H](N)C(=O)N1CCn2cc(-c3cccc(C)c3)nc2[C@@H]1CC1CCCCC1 , state whether its inhibition is greater than or equal to 20%. YES

Textbook exercise: given the entry CCC[C@H](N)CN1CCn2cc(-c3ccc4c(c3)CCCC4)nc2[C@@H]1CC1CCCCC1 , state whether its inhibition is greater than or equal to 20%. NO

Textbook exercise: given the entry CC(C)(C)NCCN1CCn2cc(-c3ccc4c(c3)CCCC4)nc2[C@@H]1CC1CCCCC1 , state whether its inhibition is greater than or equal to 20%. NO

More entries:
Textbook exercise: given the entry CC[C@H](C)[C@H](N)C(=O)N1CCn2cc(-c3ccc(Cl)c(Cl)c3)nc2[C@@H]1CC1CCCCC1 , state whether its inhibition is greater than or equal to 20%. NO

Textbook exercise: given the entry CC[C@H](C)[C@H](N)C(=O)N1CCn2cc(-c3cccc(C(=O)O)c3)nc2[C@@H]1CC1CCCCC1 , state whether its inhibition is greater than or equal to 20%. NO

---

PROTOCOL_SUMMARY: Antiproliferative activity against human MP41 cells assessed as reduction in cell viability measured after 72 hrs by CCK-8 method
Type: functional, cell-based
SETUP_CONDITIONS: MP41, 72 h
READOUT_LABEL: IC50 (µM)
Output spec: scalar in µM, unitless text.

Answered cases to consult:
Would you mind telling me what IC50 value was observed for N[C@H](CN1CCn2cc(-c3ccc4c(c3)CCCC4)nc2[C@@H]1CC1CCCCC1)C1CCCCC1 ? 5.9

Would you mind telling me what IC50 value was observed for CC[C@H](C)[C@H](N)C(=O)N1CCn2cc(-c3ccc4c(c3)CCCC4)nc2[C@@H]1C1CCCCC1 ? 8.4

Would you mind telling me what IC50 value was observed for CC[C@H](C)[C@H](N)C(=O)N1CCn2cc(-c3ccc4c(c3)CCCC4)nc2[C@@H]1C(C)C ? 19.8

Now consider the entry below.
Would you mind telling me what IC50 value was observed for CC(C)(C)NCCN1CCn2cc(-c3ccc4c(c3)CCCC4)nc2[C@@H]1CC1CCCCC1 ? 8.7
